Listed binders paired with reported koff
# test_system: TRBV9+TRAV38 antigen
# assay_summary: BLI (OctetRed 96), antigen on AR2G sensors, antibody 126-2 nM, 1:1 model; run 2
Expressed in s⁻¹, but write only the number.

{"columns": ["binder", "quantity_unit", "koff"],
 "data": [
  ["anti-TRBV9-1 monoclonal antibody (antibody, human IgG1, kappa, V domains shown) VH: QIQLVQSGPELREPGESVKLSCKASGYTFTDYLVHWVKQAPGKGLKWMGWINTYTGTPTYADDFEGRFVFSLEASASTANLQISNLKNEDTATYFCARSWRRGLRGLGFDYWGQGVFVTVSS VL: DVQMTQSPYNLAASPGESVSINCKASKSINKYLAWYQQKPGKPNKLLIYDGSTLQSGIPSRFSGSGSGTDFTLTIRGLEPEDFGLYYCQQHNEYPPTFGAGTKLELKR", "s⁻¹", 0.000205]
]}

Please look at the following binder next.
// query koff value for entry anti-TRBV9-3 monoclonal antibody (antibody, human IgG1, kappa, V domains shown) VH: QIQLVQSGPELREPGESVKLSCKASGYTFTDYLVHWVKQAPGKGLKWMGWINTYTGTPTYADDFEGRFVFSLEASASTANLQISNLKNEDTATYFCARSWRRGIRGLGFDYWGQGVFVTVSS VL: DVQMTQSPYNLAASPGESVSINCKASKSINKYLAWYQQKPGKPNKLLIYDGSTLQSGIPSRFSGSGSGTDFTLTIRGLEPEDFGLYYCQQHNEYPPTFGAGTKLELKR
9.16e-05
